# method.description: Mean residence time (infinity) in ICR mouse at 5 mg/kg, po via gavage by LC-MS/MS analysis
# Assay type: ADME, organism-based
# Set-up: dose 5 mg/kg, route oral
# conditions: in vivo
measurement.label: MRT inf (h)
Unit h implied. Number only.

Form field: reported MRT inf of `COc1cc(C(=O)c2cccc(-c3cc4ccccc4[nH]3)c2)cc(OC)c1OC` 8.9

----------
# method.description: Terminal half life in ICR mouse at 15 mg/kg, iv by LC-MS/MS analysis
# Format: ADME, organism-based
# Parameters: dose 15 mg/kg, route intravenous
# conditions: in vivo, read-out: beta t1/2 (converted)
measurement.label: half-life (h)
Unit h implied. Number only.

Form field: reported half-life of `COc1cc(C(=O)c2cccc(-c3cc4ccccc4[nH]3)c2)cc(OC)c1OC` 8.9

----------
# method.description: AUC (infinity) in ICR mouse at 5 mg/kg, po via gavage by LC-MS/MS analysis
# Type: ADME, organism-based
# Design: time infinity, dose 5 mg/kg, route oral
# conditions: plasma
measurement.label: AUC(0-inf) (ng·h/mL)
Unit ng·h/mL implied. Number only.

Form field: reported AUC(0-inf) of `COc1cc(C(=O)c2cccc(-c3cc4ccccc4[nH]3)c2)cc(OC)c1OC` 517

----------
# method.description: Bioavailability in ICR mouse at 5 mg/kg, ip by LC-MS/MS analysis
# Format: ADME, organism-based
# conditions: in vivo
measurement.label: bioavailability (%)
Unit % implied. Number only.

Form field: reported bioavailability of `COc1cc(C(=O)c2cccc(-c3cc4ccccc4[nH]3)c2)cc(OC)c1OC` 95

----------
# method.description: Metabolic stability in mouse liver microsomes assessed as half life during phase 1 at 0.5 uM by LC-MS/MS analysis in presence of 3 mM NADPH and absence of UDPGA
# Type: ADME
# conditions: read-out: alphat1/2
measurement.label: half-life at 0.5 µM (min)
Unit min implied. Number only.

Form field: reported half-life at 0.5 µM of `COc1cc(C(=O)c2cccc(-c3cc4ccccc4[nH]3)c2)cc(OC)c1OC` 37

----------
# method.description: Bioavailability in ICR mouse at 1 mg/kg, ip by LC-MS/MS analysis
# Format: ADME, organism-based
# conditions: in vivo
measurement.label: bioavailability (%)
Unit % implied. Number only.

Form field: reported bioavailability of `COc1cc(C(=O)c2cccc(-c3cc4ccccc4[nH]3)c2)cc(OC)c1OC` 65

----------
# method.description: Oral bioavailability in ICR mouse at 1 mg/kg via gavage after 30 mins by LC-MS/MS analysis
# Type: ADME, organism-based
# conditions: in vivo
measurement.label: bioavailability (%)
Unit % implied. Number only.

Form field: reported bioavailability of `COc1cc(C(=O)c2cccc(-c3cc4ccccc4[nH]3)c2)cc(OC)c1OC` 24

----------
# method.description: AUC (infinity) in ICR mouse at 5 mg/kg, iv by LC-MS/MS analysis
# Assay type: ADME, organism-based
# Parameters: time infinity, dose 5 mg/kg, route intravenous
# conditions: plasma
measurement.label: AUC(0-inf) (ng·h/mL)
Unit ng·h/mL implied. Number only.

Form field: reported AUC(0-inf) of `COc1cc(C(=O)c2cccc(-c3cc4ccccc4[nH]3)c2)cc(OC)c1OC` 3950

----------
# method.description: Mean residence time (infinity) in ICR mouse at 5 mg/kg, ip by LC-MS/MS analysis
# Type: ADME, organism-based
# Set-up: dose 5 mg/kg, route intraperitoneal
# conditions: in vivo
measurement.label: MRT inf (h)
Unit h implied. Number only.

Form field: reported MRT inf of `COc1cc(C(=O)c2cccc(-c3cc4ccccc4[nH]3)c2)cc(OC)c1OC` 5.5

----------
# method.description: Metabolic stability in monkey liver microsomes assessed as half life during phase 1 at 0.5 uM by LC-MS/MS analysis in presence of 3 mM NADPH and absence of UDPGA
# Format: ADME, Macaca mulatta
# conditions: rhesus monkey, read-out: alphat1/2
measurement.label: half-life at 0.5 µM
Just so you know, I need the unit written after the number.

Form field: reported half-life at 0.5 µM of `COc1cc(C(=O)c2cccc(-c3cc4ccccc4[nH]3)c2)cc(OC)c1OC` 15 min

----------
# method.description: Oral bioavailability in ICR mouse at 15 mg/kg via gavage after 30 mins by LC-MS/MS analysis
# Assay type: ADME, organism-based
# conditions: in vivo
measurement.label: bioavailability

Form field: reported bioavailability of `COc1cc(C(=O)c2cccc(-c3cc4ccccc4[nH]3)c2)cc(OC)c1OC` 8%

----------
# method.description: Cmax in ICR mouse at 15 mg/kg, ip by LC-MS/MS analysis
# Format: ADME, organism-based
# Set-up: dose 15 mg/kg, route intraperitoneal
# conditions: in vivo
measurement.label: Cmax
Just so you know, I need the unit written after the number.

Form field: reported Cmax of `COc1cc(C(=O)c2cccc(-c3cc4ccccc4[nH]3)c2)cc(OC)c1OC` 4290 ng/mL

----------
# method.description: Mean residence time (infinity) in ICR mouse at 1 mg/kg, ip by LC-MS/MS analysis
# Type: ADME, organism-based
# Set-up: dose 1 mg/kg, route intraperitoneal
# conditions: in vivo
measurement.label: MRT inf (h)
Unit h implied. Number only.

Form field: reported MRT inf of `COc1cc(C(=O)c2cccc(-c3cc4ccccc4[nH]3)c2)cc(OC)c1OC` 6.4

----------
# method.description: Volume of distribution at steady state in ICR mouse at 1 mg/kg, iv by LC-MS/MS analysis
# Format: ADME, organism-based
# Parameters: dose 1 mg/kg, route intravenous
# conditions: in vivo, read-out: Vdss
measurement.label: Vd
Just so you know, I need the unit written after the number.

Form field: reported Vd of `COc1cc(C(=O)c2cccc(-c3cc4ccccc4[nH]3)c2)cc(OC)c1OC` 5.3 L/kg

----------
# method.description: Mean residence time (infinity) in ICR mouse at 1 mg/kg, po via gavage by LC-MS/MS analysis
# Format: ADME, organism-based
# Parameters: dose 1 mg/kg, route oral
# conditions: in vivo
measurement.label: MRT inf

Form field: reported MRT inf of `COc1cc(C(=O)c2cccc(-c3cc4ccccc4[nH]3)c2)cc(OC)c1OC` 9 h

----------
# method.description: Tmax in ICR mouse at 15 mg/kg, ip by LC-MS/MS analysis
# Type: ADME, organism-based
# Parameters: dose 15 mg/kg, route intraperitoneal
# conditions: in vivo
measurement.label: Tmax (min)
Unit min implied. Number only.

Form field: reported Tmax of `COc1cc(C(=O)c2cccc(-c3cc4ccccc4[nH]3)c2)cc(OC)c1OC` 10

----------
# method.description: Terminal half life in ICR mouse at 5 mg/kg, iv by LC-MS/MS analysis
# Type: ADME, organism-based
# Design: dose 5 mg/kg, route intravenous
# conditions: in vivo, read-out: beta t1/2 (converted)
measurement.label: half-life
Just so you know, I need the unit written after the number.

Form field: reported half-life of `COc1cc(C(=O)c2cccc(-c3cc4ccccc4[nH]3)c2)cc(OC)c1OC` 4.3 h

----------
# method.description: Metabolic stability in dog liver microsomes assessed as half life during phase 1 at 0.5 uM by LC-MS/MS analysis in presence of 3 mM NADPH and absence of UDPGA
# Type: ADME, Canis lupus familiaris
# conditions: read-out: alphat1/2
measurement.label: half-life at 0.5 µM (min)
Unit min implied. Number only.

Form field: reported half-life at 0.5 µM of `COc1cc(C(=O)c2cccc(-c3cc4ccccc4[nH]3)c2)cc(OC)c1OC` 29

----------
# method.description: Mean residence time (infinity) in ICR mouse at 5 mg/kg, iv by LC-MS/MS analysis
# Format: ADME, organism-based
# Parameters: dose 5 mg/kg, route intravenous
# conditions: in vivo
measurement.label: MRT inf
Just so you know, I need the unit written after the number.

Form field: reported MRT inf of `COc1cc(C(=O)c2cccc(-c3cc4ccccc4[nH]3)c2)cc(OC)c1OC` 3.3 h

----------
# method.description: AUC (infinity) in ICR mouse at 15 mg/kg, ip by LC-MS/MS analysis
# Assay type: ADME, organism-based
# Set-up: time infinity, dose 15 mg/kg, route intraperitoneal
# conditions: plasma
measurement.label: AUC(0-inf) (ng·h/mL)
Unit ng·h/mL implied. Number only.

Form field: reported AUC(0-inf) of `COc1cc(C(=O)c2cccc(-c3cc4ccccc4[nH]3)c2)cc(OC)c1OC` 12600

----------
# method.description: AUC (infinity) in ICR mouse at 1 mg/kg, ip by LC-MS/MS analysis
# Assay type: ADME, organism-based
# Parameters: time infinity, dose 1 mg/kg, route intraperitoneal
# conditions: plasma
measurement.label: AUC(0-inf) (ng·h/mL)
Unit ng·h/mL implied. Number only.

Form field: reported AUC(0-inf) of `COc1cc(C(=O)c2cccc(-c3cc4ccccc4[nH]3)c2)cc(OC)c1OC` 400
